Recorded values, source the supplement of paper PMC9233669.

Task for the reader: assign each of the following sequences its reported self-aminoacylation.
Tested on: biotinyl-Ile-oxazolone
assay_remarks: self-aminoacylation, catalytic enhancement (BIO) (fold over background); higher = more active; k-Seq, kA / k0A0; sequences stand for … in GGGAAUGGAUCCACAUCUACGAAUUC…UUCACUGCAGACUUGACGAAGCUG
This sample holds only a part of the variants without activity.
Reply with just the number.

Task: Give the measured self-aminoacylation of AUUCACCUAGGUAAUCGGUUG [Fam2.2 aminoacylation ribozyme variant] .
Output: 0.71

Task: Give the measured self-aminoacylation of CUCCACCUAGGUCAUCGGGUG [Fam2.2 aminoacylation ribozyme variant] .
Output: 3.95

Task: Give the measured self-aminoacylation of CCACACAUCAAGCAAUCGGCC [Fam1B.1 aminoacylation ribozyme variant] .
Output: 2.66

Task: Give the measured self-aminoacylation of GAGUUUGCUAAUUGUCGCAAG [Fam3.1 aminoacylation ribozyme variant] .
Output: 1.36

Task: Give the measured self-aminoacylation of AUUCACCGAGGUUAUCGGGUG [Fam2.2 aminoacylation ribozyme variant] .
Output: 4.28

Task: Give the measured self-aminoacylation of AUUACCCUGAUCAUAGAGUGA [Fam2.1 aminoacylation ribozyme variant] .
Output: 6.32

Task: Give the measured self-aminoacylation of AAGUUUGGUAUUAGUCGCAAG [Fam3.1 aminoacylation ribozyme variant] .
Output: 1.65

Task: Give the measured self-aminoacylation of GUACUUCAAACAAUCUGUCUG [Fam1A.1 aminoacylation ribozyme variant] .
Output: 1.76

Task: Give the measured self-aminoacylation of CCACAUUUCAAGCGAUCGGUC [Fam1B.1 aminoacylation ribozyme variant] .
Output: 1.54

Task: Give the measured self-aminoacylation of CUACUUCAAACGAUCCGUCUG [Fam1A.1 aminoacylation ribozyme variant] .
Output: 0.783

Task: Give the measured self-aminoacylation of AUUCAUCUAGGUCAUUGGGUG [Fam2.2 aminoacylation ribozyme variant] .
Output: 2.67

Task: Give the measured self-aminoacylation of AAGUUCGCUAAUACUCGCAAG [Fam3.1 aminoacylation ribozyme variant] .
Output: 1.53

Task: Give the measured self-aminoacylation of CUACUACAAACAAUCGGUCUU [Fam1A.1 aminoacylation ribozyme variant] .
Output: 0.533

Task: Give the measured self-aminoacylation of AUUACGCUGGUCAUCGGGUGA [Fam2.1 aminoacylation ribozyme variant] .
Output: 6.21

Task: Give the measured self-aminoacylation of AUUCACCUGCGUCAUCGGGUG [Fam2.2 aminoacylation ribozyme variant] .
Output: 5.17

Task: Give the measured self-aminoacylation of AAGUUUGCUAAUAGUCGCAAU [Fam3.1 aminoacylation ribozyme variant] .
Output: 1.42

Task: Give the measured self-aminoacylation of CUACUUGAAACAAUCGGCCUG [Fam1A.1 aminoacylation ribozyme variant] .
Output: 1.84

Task: Give the measured self-aminoacylation of CCACACUUCAAGCAAUAGGUG [Fam1B.1 aminoacylation ribozyme variant] .
Output: 1.85

Task: Give the measured self-aminoacylation of AAGUUUGCUAAUUGUCCCAAG [Fam3.1 aminoacylation ribozyme variant] .
Output: 1.28

Task: Give the measured self-aminoacylation of CCCCACUUCAAGCCAUCGGUC [Fam1B.1 aminoacylation ribozyme variant] .
Output: 2.33

Task: Give the measured self-aminoacylation of AAGUUCGCUAAUAGCCGCAAG [Fam3.1 aminoacylation ribozyme variant] .
Output: 1.35

Task: Give the measured self-aminoacylation of CUACAUCAAACAAUCGGCCUG [Fam1A.1 aminoacylation ribozyme variant] .
Output: 1.25

Task: Give the measured self-aminoacylation of CCACUUCUAACAAUCGGUCUG [Fam1A.1 aminoacylation ribozyme variant] .
Output: 0.858

Task: Give the measured self-aminoacylation of UCACACUUCAACCAAUCGGUC [Fam1B.1 aminoacylation ribozyme variant] .
Output: 1.45

Task: Give the measured self-aminoacylation of CCACACUUCAGGCUAUCGGUC [Fam1B.1 aminoacylation ribozyme variant] .
Output: 1.33

Task: Give the measured self-aminoacylation of AUUACCCUGGUCAUCGAAUGU [Fam2.1 aminoacylation ribozyme variant] .
Output: 0.894

Task: Give the measured self-aminoacylation of CUAAUUCAAUCAAUCGGUCUG [Fam1A.1 aminoacylation ribozyme variant] .
Output: 0.805

Task: Give the measured self-aminoacylation of ACGUUUGCUAACAGUCGCAAG [Fam3.1 aminoacylation ribozyme variant] .
Output: 1.5

Task: Give the measured self-aminoacylation of CUACUUCAAAUAAUCGAUCUG [Fam1A.1 aminoacylation ribozyme variant] .
Output: 0.669

Task: Give the measured self-aminoacylation of CCACCCUUCAAGAAAUCGGUC [Fam1B.1 aminoacylation ribozyme variant] .
Output: 1.24

Task: Give the measured self-aminoacylation of CUACUUGUAACAAUCGGUCUG [Fam1A.1 aminoacylation ribozyme variant] .
Output: 0.651
